- Experimental Details: Toxicity in HEL cells assessed as induction of cell morphology changes
- Type: cell-based
- Applied Conditions: human
Readout Name: MCC

Reference set, count: 5
• CC(=O)N[C@H]1[C@H](O[C@@H]2c3ccc(c(Cl)c3)Oc3cc4cc(c3O)Oc3ccc(cc3Cl)C[C@H]3NC(=O)[C@H](n5cc6ccccc6c5Sc5ncccn5)c5ccc(O)c(c5)Oc5cc(O)cc(c5)[C@H](NC3=O)C(=O)N[C@H]4C(=O)N[C@H]3C(=O)N[C@@H]2C(=O)N[C@H](C(=O)O)c2cc(O)cc(O)c2-c2cc3ccc2O)O[C@H](CO)[C@@H](O)[C@@H]1O = > 100 µM
• CC(=O)N[C@H]1[C@H](O[C@@H]2c3ccc(c(Cl)c3)Oc3cc4cc(c3O)Oc3ccc(cc3Cl)C[C@H]3NC(=O)[C@H](n5cc6ccccc6c5Sc5ccccc5)c5ccc(O)c(c5)Oc5cc(O)cc(c5)[C@H](NC3=O)C(=O)N[C@H]4C(=O)N[C@H]3C(=O)N[C@@H]2C(=O)N[C@H](C(=O)O)c2cc(O)cc(O)c2-c2cc3ccc2O)O[C@H](CO)[C@@H](O)[C@@H]1O = ≥ 20 µM
• CC(=O)N[C@H]1[C@H](O[C@@H]2c3ccc(c(Cl)c3)Oc3cc4cc(c3O)Oc3ccc(cc3Cl)C[C@H]3NC(=O)[C@H](N)c5ccc(O)c(c5)Oc5cc(O)cc(c5)[C@H](NC3=O)C(=O)N[C@H]4C(=O)N[C@H]3C(=O)N[C@@H]2C(=O)N[C@H](C(=O)O)c2cc(O)cc(O)c2-c2cc3ccc2O)O[C@H](CO)[C@@H](O)[C@@H]1O = > 100 µM
• CC(=O)N[C@H]1[C@H](O[C@@H]2c3ccc(c(Cl)c3)Oc3cc4cc(c3O)Oc3ccc(cc3Cl)C[C@H]3NC(=O)[C@H](n5cc6ccccc6c5S[C@@H]5O[C@H](CO)[C@@H](O)[C@H](O)[C@H]5O)c5ccc(O)c(c5)Oc5cc(O)cc(c5)[C@H](NC3=O)C(=O)N[C@H]4C(=O)N[C@H]3C(=O)N[C@@H]2C(=O)N[C@H](C(=O)O)c2cc(O)cc(O)c2-c2cc3ccc2O)O[C@H](CO)[C@@H](O)[C@@H]1O = ≥ 100 µM
• CC(=O)N[C@H]1[C@H](O[C@@H]2c3ccc(c(Cl)c3)Oc3cc4cc(c3O)Oc3ccc(cc3Cl)C[C@H]3NC(=O)[C@H](n5cc6ccccc6c5S[C@@H]5O[C@H](COC(C)=O)[C@@H](OC(C)=O)[C@H](OC(C)=O)[C@H]5OC(C)=O)c5ccc(O)c(c5)Oc5cc(O)cc(c5)[C@H](NC3=O)C(=O)N[C@H]4C(=O)N[C@H]3C(=O)N[C@@H]2C(=O)N[C@H](C(=O)O)c2cc(O)cc(O)c2-c2cc3ccc2O)O[C@H](CO)[C@@H](O)[C@@H]1O = ≥ 100 µM

Query string: Would you mind telling me what MCC value was observed for CC(=O)N[C@H]1[C@H](O[C@@H]2c3ccc(c(Cl)c3)Oc3cc4cc(c3O)Oc3ccc(cc3Cl)C[C@H]3NC(=O)[C@H](n5cc6cc7ccccc7cc6c5Sc5nc6ccccc6s5)c5ccc(O)c(c5)Oc5cc(O)cc(c5)[C@H](NC3=O)C(=O)N[C@H]4C(=O)N[C@H]3C(=O)N[C@@H]2C(=O)N[C@H](C(=O)O)c2cc(O)cc(O)c2-c2cc3ccc2O)O[C@H](CO)[C@@H](O)[C@@H]1O ?
Result string: > 100 µM

Origin of measurements: ChEMBL document CHEMBL2203009
